Every entry's value here was drawn from patent US12312332B2.

# TARGET_UNDER_TEST: human OX2R (Homo sapiens, UniProt O43614)
# Construct: expressed in transfected cells; host or cells: Chinese hamster ovary (CHO) cells, kept under G418 selection
# Sequence (O43614 whole entry): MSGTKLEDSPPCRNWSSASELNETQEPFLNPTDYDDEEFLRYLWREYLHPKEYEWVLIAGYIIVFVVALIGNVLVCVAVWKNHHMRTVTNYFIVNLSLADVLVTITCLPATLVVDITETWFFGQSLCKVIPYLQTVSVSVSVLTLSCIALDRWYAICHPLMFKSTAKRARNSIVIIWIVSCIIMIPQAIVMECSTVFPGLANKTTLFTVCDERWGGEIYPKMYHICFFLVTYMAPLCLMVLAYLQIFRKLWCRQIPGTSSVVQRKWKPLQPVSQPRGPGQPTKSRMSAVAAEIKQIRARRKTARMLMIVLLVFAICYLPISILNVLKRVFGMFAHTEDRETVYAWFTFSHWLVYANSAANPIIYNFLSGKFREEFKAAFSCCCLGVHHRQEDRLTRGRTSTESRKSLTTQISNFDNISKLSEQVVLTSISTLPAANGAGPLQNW
# TEST_DETAILS: IPOne (IP-One) orexin receptor agonist assay in CHO cells expressing human OX2R
# Type: cell-based
# CONDITION_DESCRIPTION: human OX2R; percentage of sample raw value/mean max effect (reference compound at 1 uM with 100% activity)
Kindly state % max agonist effect (Emax) for each of the entries shown.
Please state the figure in %; there is no need to write the unit.

% max agonist effect (Emax) reported for this molecule "COc1cncc(N2CC[C@H](NS(C)(=O)=O)[C@@H]2CO[C@H]2CC[C@@H](c3ccccc3)CC2)c1" : 101.1

Lab book: % max agonist effect (Emax) of "COc1cccc(N2CC[C@H](NS(C)(=O)=O)[C@@H]2CO[C@H]2CC[C@@H](c3ccccc3)CC2)c1" noted as 84.6

// field: % max agonist effect (Emax); key: "Cn1cccc(N2CC[C@H](NS(C)(=O)=O)[C@@H]2CO[C@H]2CC[C@@H](c3ccccc3)CC2)c1=O" ; value = 100

The value of % max agonist effect (Emax) measured for the molecule "CS(=O)(=O)N[C@H]1CCN(c2ncc(CO)s2)[C@H]1CO[C@H]1CC[C@@H](c2ccccc2)CC1" turned out to be 67.4

Entry under test: "Cn1c(N2CC[C@H](NS(C)(=O)=O)[C@@H]2CO[C@H]2CC[C@@H](c3ccccc3)CC2)cccc1=O" . Its % max agonist effect (Emax) was 99.6

# % max agonist effect (Emax) (molecule: "CS(=O)(=O)N[C@H]1CCN(c2ccc(F)c(C(F)F)c2)[C@H]1CO[C@H]1CC[C@@H](c2ccccc2)CC1" ) is 57.0

Lookup result for "Cc1ccncc1N1CC[C@H](NS(C)(=O)=O)[C@@H]1CO[C@H]1CC[C@@H](c2ccccc2)CC1" ; measured % max agonist effect (Emax): 100.9

Note to self: % max agonist effect (Emax) recorded for "C[C@@H]1C[C@H](NS(=O)(=O)N(C)C)[C@H](CO[C@H]2CC[C@@H](c3cccc(F)c3)CC2)N1c1cc(O)c(Cl)cn1" was 100.5

Measured % max agonist effect (Emax), "CS(=O)(=O)N[C@H]1CCN(c2cc(F)cnc2O)[C@H]1CO[C@H]1CC[C@@H](c2ccccc2)CC1" : 99.7

Notebook: "CS(=O)(=O)N[C@H]1CCN(c2nccc(O)c2F)[C@H]1CO[C@H]1CC[C@@H](c2cccc(F)c2)CC1" , % max agonist effect (Emax) read as 101.6

Please fill in: % max agonist effect (Emax) reported for "CS(=O)(=O)N[C@H]1CCN(c2ccncc2)[C@H]1CO[C@H]1CC[C@@H](c2ccccc2)CC1" = 87.6

Lab book: % max agonist effect (Emax) of "COc1cc(N2CC[C@H](NS(C)(=O)=O)[C@@H]2CO[C@H]2CC[C@@H](c3ccccc3)CC2)ccn1" noted as 87.2

# % max agonist effect (Emax) (molecule: "COC[C@@H]1C[C@H](NS(=O)(=O)N(C)C)[C@H](CO[C@H]2CC[C@@H](c3cccc(F)c3)CC2)N1c1cc(O)c(F)cn1" ) is 101.9
